procedureDetails: Aqueous solubility of the compound
Assay type: physicochemical
experimentalConditions: buffer
measurementName: solubility (µg/mL)

>  <smilesRepresentation>
Cc1ccccc1CNC(=O)c1cncc(-c2ccc(C#N)cc2)n1

>  <solubility [µg/mL]>
0.35

$$$$

[A] O=C(NCc1cccnc1N1CCCC1)c1cncc(-c2ccc(Cl)cc2)n1
[B] CCOc1ccc(-c2cncc(C(=O)NCc3ccccc3C)n2)cc1
[C] O=C(NCc1cccnc1)c1cncc(-c2ccc(Cl)cc2)n1
[D] O=C(NCc1cccnc1N1CCOCC1)c1cncc(-c2ccc(Cl)cc2)n1
Qu. Could you please sort these 4 entries by solubility from high to low? Present the labels in the sequence the task asks for.
Ans. D, C, A, B
